Data credit: patent US20260102383A1

System Name: human LPAR1 (Homo sapiens, UniProt Q92633)
Construct: host or cells: TangoEDG2-bla U2OS cells
Sequence (Q92633 whole entry): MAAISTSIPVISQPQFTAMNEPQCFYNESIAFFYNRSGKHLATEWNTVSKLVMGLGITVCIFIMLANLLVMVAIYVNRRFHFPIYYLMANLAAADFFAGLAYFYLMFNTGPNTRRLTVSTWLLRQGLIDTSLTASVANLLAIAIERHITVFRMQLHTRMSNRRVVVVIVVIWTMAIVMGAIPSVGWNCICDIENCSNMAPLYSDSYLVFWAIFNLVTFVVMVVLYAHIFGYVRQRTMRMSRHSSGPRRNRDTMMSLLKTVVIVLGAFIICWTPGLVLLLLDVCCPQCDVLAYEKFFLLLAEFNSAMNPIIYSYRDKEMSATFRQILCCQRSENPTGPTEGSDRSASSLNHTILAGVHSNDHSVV
Measurement Protocol: Arrestin assay (Arrestin Reporter EDG2-bla U2OS), inhibition of LPA-stimulated signal
Assay type: cell-based
Study Conditions: TangoEDG2-bla U2OS cells expressing human LPAR1; 0.25 μM LPA; read-out: Arrestin Reporter EDG2-bla U2OS Human Merged IC50
Quick reference for IC50 among some compounds

>  <Compound>
CC(C)c1ccnn1C1(C(=O)Nc2ccc(Cl)cc2OC(F)F)CCN([C@@H]2CO[C@@H](C(=O)O)C2)CC1 [Compound 138]

>  <IC50 (nM)>
72

$$$$
>  <Compound>
CC(C)c1ccnn1C1(C(=O)Nc2ccc(Cl)cc2OC(F)F)CCN(C[C@@H](C(=O)O)[C@H]2C[C@@H](C)O[C@@H](C)C2)CC1 [Compound 195]

>  <IC50 (nM)>
67.6

$$$$
>  <Compound>
CC(C)c1c(F)cnn1C1(C(=O)Nc2ccc(Cl)cc2OC(F)F)CCN(C[C@@H](CO)C(=O)O)CC1 [Compound 209]

>  <IC50 (nM)>
33.6

$$$$
